I'd be grateful if you could share measured AC50 for these entries.
Your answer is read as µM, so omit the unit and give the number.

## Input Can you look up AC50 on Glucocorticoid receptor (Homo sapiens, UniProt P04150) for COc1cccc2c1C(=O)c1c(O)c3c(c(O)c1C2=O)C[C@@](O)(C(C)=O)C[C@@H]3O[C@H]1C[C@H](N)[C@H](O)[C@H](C)O1 ?
## Output 0.11

## Input // fetch Glucocorticoid receptor (Homo sapiens, UniProt P04150) AC50 for CC(=O)OCC(=O)[C@@]1(O)CC[C@H]2[C@@H]3CCC4=CC(=O)CC[C@]4(C)C3=CC[C@@]21C [ANECORTAVE ACETATE]
## Output 1.7
